System: human melanoma SH-4
assay_explanation: Antiproliferative activity, MTT dye reduction assay, SH-4
Format: cell-based
experimental_setup: SI = IC50 (non-tumor cell line HaCaT)/IC50 (tumor cell line SH-4)
Quick rule for you: SI (Selective index) under 2 gets TRUE, anything else gets FALSE.

Query: Answer whether the compound CCOC(=O)c1cc(-c2ccc(Cl)cc2)n(C(Cc2ccccc2)C(=O)N/N=C/c2[nH]c(C)c(C(=O)OCC)c2C)c1C (centres unmarked) [Compound 1B] has SI (Selective index) strictly less than 2
Result: FALSE

Query: Determine whether this compound shows SI (Selective index) lower than 2 (ties excluded): CCOC(=O)c1cc(-c2ccc(Cl)cc2)n(C(Cc2ccccc2)C(=O)NN)c1C (centres unmarked) [Compound 1]
Result: TRUE

Query: # TODO verify SI (Selective index) < 2 strictly for this compound: CCOC(=O)c1cc(-c2ccc(Cl)cc2)n(C(Cc2ccccc2)C(=O)N/N=C/c2c(C)[nH]c(C)c2C(=O)OCC)c1C (centres unmarked) [Compound 1D]
Result: TRUE

Query: In plain terms, does CCOC(=O)c1cc(-c2ccc(Cl)cc2)n(C(Cc2ccccc2)C(=O)N/N=C/c2[nH]c(C(=O)OCC)c(C)c2C(=O)OCC)c1C (centres unmarked) [Compound 1A] come in under 2 for SI (Selective index)?
Result: TRUE

Query: Does this compound meet the criterion SI (Selective index) < 2? CCOC(=O)c1cc(-c2ccc(Cl)cc2)n(C(Cc2ccccc2)C(=O)N/N=C/c2c(C)[nH]c(C(=O)OCC)c2C)c1C (centres unmarked) [Compound 1C]
Result: FALSE
